experiment: Human plasma pharmacokinetics, single ascending dose study
Assay type: in vivo, human healthy subjects
settings: 20 mg single oral dose, geometric mean (CV%)
readoutLabel: Cmax (nM)

[[record]]
querysmiles = "C#C[C@@H]1CN(C(=O)[C@H](CC(C)C)NC(=O)c2ccc(-c3nc(N4CCN(C)CC4)sc3F)cc2)[C@@H]2C(=O)CO[C@H]12"
readoutlabel = "Cmax"
reportedresult = 33


###

assayedTarget: human cathepsin V (Homo sapiens)
Sequence (O60911 114-334): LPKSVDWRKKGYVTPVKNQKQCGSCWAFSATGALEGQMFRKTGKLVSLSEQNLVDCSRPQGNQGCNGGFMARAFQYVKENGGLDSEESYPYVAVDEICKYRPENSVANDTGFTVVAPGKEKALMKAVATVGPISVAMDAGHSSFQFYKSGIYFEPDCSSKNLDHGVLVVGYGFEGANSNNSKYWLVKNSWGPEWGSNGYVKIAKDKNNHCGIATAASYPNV
pKi: −log10 of the molar value.
readoutLabel: pKi

[[record]]
querysmiles = "C#C[C@@H]1CN(C(=O)[C@H](CC(C)C)NC(=O)c2ccc(-c3nc(N4CCN(C)CC4)sc3F)cc2)[C@@H]2C(=O)CO[C@H]12"
readoutlabel = "pKi"
reportedresult = 5.40

